Target: Small conductance calcium-activated potassium channel protein 2 (Homo sapiens)
Sequence (Q9H2S1 whole entry): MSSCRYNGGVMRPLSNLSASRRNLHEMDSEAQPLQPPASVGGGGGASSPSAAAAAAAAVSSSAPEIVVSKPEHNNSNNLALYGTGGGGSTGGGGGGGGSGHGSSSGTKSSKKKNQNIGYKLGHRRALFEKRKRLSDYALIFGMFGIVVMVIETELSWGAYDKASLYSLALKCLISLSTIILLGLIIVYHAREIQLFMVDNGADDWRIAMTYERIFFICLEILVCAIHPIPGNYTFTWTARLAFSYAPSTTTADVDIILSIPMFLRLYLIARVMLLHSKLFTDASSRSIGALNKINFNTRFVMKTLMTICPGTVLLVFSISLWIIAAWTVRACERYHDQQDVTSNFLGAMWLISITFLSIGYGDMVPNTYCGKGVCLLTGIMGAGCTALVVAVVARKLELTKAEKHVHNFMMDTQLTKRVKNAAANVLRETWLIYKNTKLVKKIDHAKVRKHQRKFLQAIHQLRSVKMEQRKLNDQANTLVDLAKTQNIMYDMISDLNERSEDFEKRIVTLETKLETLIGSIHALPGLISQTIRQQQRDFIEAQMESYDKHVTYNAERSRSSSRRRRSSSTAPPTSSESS
Assay: Displacement of [125I]-apamin from cloned SK2 channel expressed in human HEK293 cells after 1 hr by liquid scintillation counting
READOUT: Ki (nM)

For orientation, consider the following solved cases.
| STRUCTURE SMILES STRING | Ki [nM] |
| --- | --- |
| CC(C)c1cccc2cc[n+](C)c(CCCCc3c4c(C(C)C)cccc4cc[n+]3C)c12 | 194 |
| CC(C)c1cccc2cc[n+](C)c(Cc3cccc(Cc4c5c(C(C)C)cccc5cc[n+]4C)c3)c12 | 90 |
| CC(C)c1cccc2cc[n+](C)c(Cc3ccc(Cc4c5c(C(C)C)cccc5cc[n+]4C)cc3)c12 | 397 |

I: CC(C)c1cccc2cc[n+](C)c(CCCCCc3c4c(C(C)C)cccc4cc[n+]3C)c12
II: CC(C)c1cccc2cc[n+](C)c(CCCc3c4c(C(C)C)cccc4cc[n+]3C)c12
Pick the one with the larger Ki: I vs II // respond with label for picked entry
I

====

Molecular target: Small conductance calcium-activated potassium channel protein 3 (Homo sapiens, UniProt Q9UGI6)
Sequence (Q9UGI6 whole entry): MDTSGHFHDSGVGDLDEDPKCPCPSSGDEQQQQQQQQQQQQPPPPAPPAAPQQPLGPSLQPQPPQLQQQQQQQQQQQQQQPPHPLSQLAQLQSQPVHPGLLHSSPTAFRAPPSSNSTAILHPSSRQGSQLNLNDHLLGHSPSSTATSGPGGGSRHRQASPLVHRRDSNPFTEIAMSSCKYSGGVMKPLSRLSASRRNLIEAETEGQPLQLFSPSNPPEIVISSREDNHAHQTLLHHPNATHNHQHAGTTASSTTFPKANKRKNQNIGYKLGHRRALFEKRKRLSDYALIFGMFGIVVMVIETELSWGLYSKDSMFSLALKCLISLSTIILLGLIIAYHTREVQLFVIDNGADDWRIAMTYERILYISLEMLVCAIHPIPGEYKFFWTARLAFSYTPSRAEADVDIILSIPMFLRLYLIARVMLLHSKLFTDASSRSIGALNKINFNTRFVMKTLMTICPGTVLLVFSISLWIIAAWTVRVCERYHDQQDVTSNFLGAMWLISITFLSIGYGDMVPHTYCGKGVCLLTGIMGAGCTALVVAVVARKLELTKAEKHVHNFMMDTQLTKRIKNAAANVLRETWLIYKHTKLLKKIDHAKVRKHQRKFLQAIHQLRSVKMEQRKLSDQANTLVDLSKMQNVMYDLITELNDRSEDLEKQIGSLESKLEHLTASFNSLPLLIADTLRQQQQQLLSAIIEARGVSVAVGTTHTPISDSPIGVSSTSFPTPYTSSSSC
Test: Inhibition of cloned human SK3 channel expressed in human HEK293 cells by patch clamp assay in the presence of 1 uM intracellular Ca2+
READOUT: pIC50
Remember the convention: pIC50 equals -log10 of concentration in molar.

Item CC(C)c1cccc2cc[n+](C)c(Cc3cccc(Cc4c5c(C(C)C)cccc5cc[n+]4C)c3)c12 has what recorded pIC50?
5.53
